Experiment: qHTS assay to identify small molecule agonists or antagonists of the thyroid stimulating hormone receptor (TSHR) signaling pathway - wild type cell line counter screen (AID 1259384)
Conditions: HEK293 wild type, cAMP HTRF counter-screen; series mostly up to 92.4 µM
Method: U.S. Tox21 Program National Center for Advancing Translational Sciences [NCATS] NIH Chemical Genomics Center [NCGC] U.S. Environmental Protection Agency [EPA] National Institutes of Environmental Health Sciences [NIEHS] National Toxicology Program [NTP] […] Tox21 Assay Protocol Summary: Hek293 cells (wild type) were dispensed at 800 cells/4 uL/well in 1536-well white plates using a Multidrop dispenser. […] The fluorescence intensity in the plates was measured using an Envision plate reader. […]
Results filed as inconclusive are left out. Calls of active or inactive are those of the source. Calls follow the shape of the full dose curve.
Respond only with the outcome that fits, drawn from active, inactive

Past entries and their recorded results:
{"COMPOUND": "CN1C[C@@H](NS(=O)(=O)N(C)C)C[C@@H]2c3cccc4c3c(cn4C)C[C@H]21", "CLASS LABEL": "inactive"}
{"COMPOUND": "OC(c1ccccc1)(c1ccccc1)C1CCNCC1", "CLASS LABEL": "inactive"}
{"COMPOUND": "O=[N+]([O-])c1ccc(CBr)cc1", "CLASS LABEL": "inactive"}
{"COMPOUND": "C[N+](C)=CCl", "CLASS LABEL": "inactive"}
{"COMPOUND": "N#CCBr", "CLASS LABEL": "inactive"}
{"COMPOUND": "CCCSP(=S)(OCC)Oc1ccc(Cl)cc1Cl (configuration not stated)", "CLASS LABEL": "inactive"}
{"COMPOUND": "CC1CCC(=O)O1 (configuration not stated)", "CLASS LABEL": "inactive"}
{"COMPOUND": "CCC1(c2ccccc2)C(=O)N=C(O)NC1=O (configuration not stated)", "CLASS LABEL": "inactive"}

Request: Which outcome was assigned to NC(=O)O in this test?
Response: inactive

Request: Which outcome was assigned to OC(Cn1cncn1)(c1ccc(F)cc1)c1ccccc1F (configuration not stated) in this test?
Response: inactive

Request: Which outcome was assigned to CCOP(=S)(OCC)SCSP(=S)(OCC)OCC in this test?
Response: inactive
